Cited source: patent US20260049076A1

# tested system: human DGKα (Homo sapiens)
# Construct: TVMV protease cleavage site (C); Hexa-His (C)
# Sequence (P23743 with tags, fused parts or gaps): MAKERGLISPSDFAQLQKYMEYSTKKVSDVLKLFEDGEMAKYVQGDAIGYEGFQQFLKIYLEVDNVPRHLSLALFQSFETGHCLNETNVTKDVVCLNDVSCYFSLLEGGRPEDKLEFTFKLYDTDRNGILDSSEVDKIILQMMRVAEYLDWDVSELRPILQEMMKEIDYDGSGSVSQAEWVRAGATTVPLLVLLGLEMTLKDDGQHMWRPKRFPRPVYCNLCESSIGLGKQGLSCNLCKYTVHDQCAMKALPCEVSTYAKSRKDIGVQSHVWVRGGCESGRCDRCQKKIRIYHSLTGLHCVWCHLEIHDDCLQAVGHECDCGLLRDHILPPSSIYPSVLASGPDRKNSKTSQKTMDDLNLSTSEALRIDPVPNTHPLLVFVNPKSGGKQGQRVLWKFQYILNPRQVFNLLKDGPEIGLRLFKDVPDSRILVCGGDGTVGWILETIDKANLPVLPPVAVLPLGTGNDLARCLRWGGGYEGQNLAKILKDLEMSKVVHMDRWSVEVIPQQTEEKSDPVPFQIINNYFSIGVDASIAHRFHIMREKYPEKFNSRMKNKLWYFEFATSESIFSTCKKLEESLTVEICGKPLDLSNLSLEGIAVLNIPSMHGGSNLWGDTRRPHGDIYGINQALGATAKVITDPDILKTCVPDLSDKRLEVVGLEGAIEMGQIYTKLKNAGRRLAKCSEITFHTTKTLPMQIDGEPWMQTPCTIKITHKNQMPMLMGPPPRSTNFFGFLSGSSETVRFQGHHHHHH
# test name: In vitro DGK inhibition assay, DGKα liposome (LIPGLO) assay
# setup conditions: read-out: Enzyme Inhibition DGKalpha IC50
quantity kind: IC50 (µM)

Below: 2 compounds and their reported IC50.
Query IC50 for COc1ccc(-c2ccc(N(CC3CC3)c3cc(=O)n(C)c4ccc(C#N)nc34)cc2)cc1
5.3

Query IC50 for Cc1cc(C2CC2)ccc1N(CC1CC1)c1cc(=O)n(C)c2ccc(C#N)nc12
4.8

I = CN(C)c1ccc(-c2cccc(N(CC3CC3)c3cc(=O)n(C)c4ccc(C#N)nc34)c2)cc1
II = Cn1c(=O)cc(N(CC2CC2)c2cccc(-c3ccc(Cl)cc3)c2)c2nc(C#N)ccc21
III = CCN(c1ccc(OC)cc1)c1cc(=O)n(C)c2ccc(C#N)nc12
IV = Cn1c(=O)cc(N(CC2CC2)c2cccc(-c3cccc(O)c3)c2)c2nc(C#N)ccc21
Returns the items ordered by IC50, from maximum to minimum. Reply with the labels, ordered as the question asks.
III, IV, II, I
(III: 6.5 µM, IV: 1.8 µM, II: 0.14 µM, I: 0.022 µM)

====

# tested system: DGKalpha (Homo sapiens, UniProt P23743)
# test name: Translocation DGKalpha
quantity kind: EC50

Below: 3 compounds and their reported EC50.
Query EC50 for Cn1c(=O)cc(N(CC2CC2)c2ccc(C3CC3)c(-c3ccc(C(N)=O)cc3)c2)c2nc(C#N)ccc21
> 3 µM

Query EC50 for Cn1c(=O)cc(N(CC2CC2)c2ccc(OCC(F)(F)F)cc2)c2nc(C#N)ccc21
10 µM

Query EC50 for Cn1c(=O)cc(N(CC2CC2)c2ccc(C3CC3)c(-c3cccc(F)c3)c2)c2nc(C#N)ccc21
> 3 µM

Lab note: next compound to report on.
Query EC50 for Cc1cc(N(CC2CC2)c2cc(=O)n(C)c3ccc(C#N)nc23)ccc1OC(F)F
> 3 µM

====

# tested system: human DGKζ (Homo sapiens)
# Construct: TVMV protease cleavage site (C); Hexa-His (C)
# test name: In vitro DGK inhibition assay, DGKζ liposome (LIPGLO) assay
# setup conditions: read-out: Enzyme Inhibition DGKzeta IC50
pIC50: −log10 of the molar value.
quantity kind: pIC50

Below: 7 molecules and their reported pIC50.
Query pIC50 for CCCN(CC1CC1)c1nc(=O)n(C)c2ccc(Cl)nc12
4.49

Query pIC50 for Cn1c(=O)cc(N(CC2CC2)c2ccc(-c3cccc(O)c3)cc2)c2nc(C#N)ccc21
5.43

Query pIC50 for Cc1ccc(N(C)c2cc(=O)n(C)c3ccc(C#N)nc23)cc1
4.44

Query pIC50 for C#CCn1c(=O)c(C#N)c(N(C)C2CCCCC2)c2nc(C#N)ccc21
5.44

Query pIC50 for Cc1ccccc1N(C)c1cc(=O)n(C)c2ccc(C#N)nc12
4.43

Query pIC50 for Cn1c(=O)cc(N(CC2CC2)c2ccc3c(c2)OCCO3)c2nc(C#N)ccc21
5.16

Query pIC50 for Cn1c(=O)cc(N(CC2CC2)c2ccc(Br)cc2)c2nc(C#N)ccc21
6.64

a = COc1cc(-c2cccc(N(CC3CC3)c3cc(=O)n(C)c4ccc(C#N)nc34)c2)ccn1
b = Cn1c(=O)cc(N(CC2CC2)c2ccc(C3CCCCC3)cc2)c2nc(C#N)ccc21
Please indicate which item has the smaller measured pIC50: a versus b Could you answer with the label of the item you picked?
b
(b: 4.92, a: 5.14)

====

# tested system: human DGKα (Homo sapiens)
# Construct: TVMV protease cleavage site (C); Hexa-His (C); made in house; host or cells: Sf9 insect cells (baculovirus)
# test name: In vitro DGK inhibition assay, DGKα liposome (LIPGLO) assay
# Assay type: biochemical
# setup conditions: read-out: Enzyme Inhibition DGKalpha IC50
quantity kind: IC50 (µM)

Query IC50 for COc1cc(-c2cccc(N(CC3CC3)c3cc(=O)n(C)c4ccc(C#N)nc34)c2)ccn1 [Example 110]
12

Query IC50 for Cn1c(=O)cc(N(CC2CC2)c2ccc(OC(F)(F)F)cc2)c2nc(C#N)ccc21 [Example 41]
8.4

Query IC50 for Cc1ccccc1-c1ccc(N(CC2CC2)c2cc(=O)n(C)c3ccc(C#N)nc23)cc1 [Example 75]
3.3

P = COc1cc(N(CC2CC2)c2cc(=O)n(C)c3ccc(C#N)nc23)ccc1F [Example 55]
Q = Cn1c(=O)cc(N(CC2CC2)c2ccc(C3CC3)c(-c3ccc(N4CCOCC4)cc3)c2)c2nc(C#N)ccc21 [Example 124]
Please indicate which item has the smaller measured IC50: P versus Q Could you answer with the label of the item you picked?
P
(P: 7.7 µM, Q: 34 µM)

P = Cc1cc(N(CC2CC2)c2cc(=O)n(C)c3ccc(C#N)nc23)ccc1OC(F)F [Example 117]
Q = Cn1c(=O)cc(N(CC2CC2)c2ccc(OC(F)F)cn2)c2nc(C#N)ccc21 [Example 123]
Which value of IC50 is numerically greater: that of P or that of Q ? Could you answer with the label of the item you picked?
Q

====

# tested system: human DGKζ (Homo sapiens, UniProt Q13574)
# Construct: TVMV protease cleavage site (C); Hexa-His (C)
# Sequence (Q13574 with tags, fused parts or gaps isoform Q13574-4): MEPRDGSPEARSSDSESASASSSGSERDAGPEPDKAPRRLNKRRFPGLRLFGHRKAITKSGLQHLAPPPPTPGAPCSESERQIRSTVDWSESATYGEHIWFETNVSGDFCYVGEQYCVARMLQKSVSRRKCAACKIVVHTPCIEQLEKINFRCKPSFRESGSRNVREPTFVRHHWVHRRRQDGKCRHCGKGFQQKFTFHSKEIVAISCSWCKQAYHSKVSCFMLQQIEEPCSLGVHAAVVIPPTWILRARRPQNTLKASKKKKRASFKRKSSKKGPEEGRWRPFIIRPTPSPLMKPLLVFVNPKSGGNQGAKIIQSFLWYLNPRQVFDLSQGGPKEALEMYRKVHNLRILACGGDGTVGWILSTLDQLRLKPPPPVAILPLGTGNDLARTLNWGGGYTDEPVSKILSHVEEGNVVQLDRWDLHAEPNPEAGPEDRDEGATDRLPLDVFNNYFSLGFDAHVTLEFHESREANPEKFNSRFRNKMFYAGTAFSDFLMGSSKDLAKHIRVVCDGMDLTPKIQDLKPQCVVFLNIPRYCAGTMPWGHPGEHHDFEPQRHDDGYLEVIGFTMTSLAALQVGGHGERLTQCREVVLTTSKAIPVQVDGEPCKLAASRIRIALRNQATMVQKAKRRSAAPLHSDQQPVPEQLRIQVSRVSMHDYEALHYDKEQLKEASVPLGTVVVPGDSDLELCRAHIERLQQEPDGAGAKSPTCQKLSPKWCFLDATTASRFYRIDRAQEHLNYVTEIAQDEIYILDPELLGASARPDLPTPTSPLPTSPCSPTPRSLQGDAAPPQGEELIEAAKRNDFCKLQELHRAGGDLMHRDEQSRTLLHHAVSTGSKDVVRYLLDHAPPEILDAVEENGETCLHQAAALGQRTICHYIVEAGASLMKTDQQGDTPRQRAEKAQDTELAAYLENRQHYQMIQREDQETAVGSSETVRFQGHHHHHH
# test name: In vitro DGK inhibition assay, DGKζ liposome (LIPGLO) assay
# setup conditions: read-out: Enzyme Inhibition DGKzeta IC50
quantity kind: IC50 (µM)

Quote IC50 with test system human DGKζ (Homo sapiens, UniProt Q13574) for Cn1c(=O)cc(N(CC2CC2)c2cccc(-c3cccc(CNS(C)(=O)=O)c3)c2)c2nc(C#N)ccc21
4.4

I = Cn1c(=O)cc(N(CC2CC2)c2ccc(C3CC3)c(-c3ccc(OCC4CC4)cc3)c2)c2nc(C#N)ccc21
II = COc1ccc(-c2cccc(N(CC3CC3)c3cc(=O)n(C)c4ccc(C#N)nc34)c2)cc1
III = Cn1c(=O)cc(N(CC2CC2)c2ccc(C3CC3)c(-c3ccccc3)c2)c2nc(C#N)ccc21
IV = CC(C1CC1)N(C)c1c(C#N)c(=O)n(C)c2ccc(C#N)nc12 (stereo not drawn)
With regard to IC50, arrange the entries in ascending order, please. Reply with the labels, ordered as the question asks.
II, IV, III, I

====

# tested system: human DGKζ (Homo sapiens)
# Construct: TVMV protease cleavage site (C); Hexa-His (C)
# test name: In vitro DGK inhibition assay, DGKζ liposome (LIPGLO) assay
# setup conditions: read-out: Enzyme Inhibition DGKzeta IC50
pIC50: −log10 of the molar value.
pIC50 for assorted molecules

Query pIC50 for Cn1c(=O)cc(N(CC2CC2)c2ccc(C3CC3)c(-c3ccc(C(N)=O)cc3)c2)c2nc(C#N)ccc21
< 4.42

Query pIC50 for Cn1c(=O)cc(N(CC2CC2)c2ccc(C3CC3)c(-c3ccc(Cl)cc3)c2)c2nc(C#N)ccc21
< 4.42

Lab note: next molecule to report on.
Query pIC50 for CN(c1cccc(-c2ccc(OC(F)(F)F)cc2)c1)c1nc(=O)n(C)c2ccc(C#N)nc12
< 4.42

====

# tested system: human DGKα (Homo sapiens)
# Construct: TVMV protease cleavage site (C); Hexa-His (C); made in house; host or cells: Sf9 insect cells (baculovirus)
# test name: In vitro DGK inhibition assay, DGKα liposome (LIPGLO) assay
# Format: biochemical
# setup conditions: read-out: Enzyme Inhibition DGKalpha IC50
# Method: The DGKα and DGKζ reactions were performed using either extruded liposome (DGKα and DGKζ LIPGLO assays) or detergent/lipid micelle substrate (DGKα and DGKζ assays). The reactions were carried out in 50 mM MOPS pH 7.5, 100 mM NaCl, 10 mM MgCl2, 1 μM CaCl2, and 1 mM DTT (assay buffer). The reactions using a detergent/lipid micelle substrate also contained 50 mM octyl B-D-glucopyranoside. The lipid substrate concentrations were 11 mM PS and 1 mM DAG for the detergent/lipid micelle reactions. […]
quantity kind: IC50 (µM)

Quote IC50 with test system human DGKα (Homo sapiens) for CN(C)c1cccc(-c2ccc(N(CC3CC3)c3cc(=O)n(C)c4ccc(C#N)nc34)cc2)c1
2.5

Quote IC50 with test system human DGKα (Homo sapiens) for Cn1c(=O)cc(N(CC2CC2)c2ccc3c(c2)OCCO3)c2nc(C#N)ccc21
13

Quote IC50 with test system human DGKα (Homo sapiens) for Cn1c(=O)cc(N(CC2CC2)c2cccc(-c3ccc(CNS(C)(=O)=O)cc3)c2)c2nc(C#N)ccc21
0.18

Quote IC50 with test system human DGKα (Homo sapiens) for Cn1c(=O)cc(N(CC2CC2)c2ccc(Br)cc2)c2nc(C#N)ccc21
0.26

Quote IC50 with test system human DGKα (Homo sapiens) for COc1ccc(N(CC2CC2)c2cc(=O)n(C)c3ccc(C#N)nc23)cc1
0.89

Quote IC50 with test system human DGKα (Homo sapiens) for Cn1c(=O)cc(N(CC2CC2)c2ccc(C#N)nc2)c2nc(C#N)ccc21
17

A = Cn1c(=O)cc(N(CC2CC2)c2ccc(OC(F)(F)F)cc2Cl)c2nc(C#N)ccc21
B = Cn1c(=O)cc(N(CC2CC2)c2cccc(-c3cccnc3)c2)c2nc(C#N)ccc21
Please indicate which item has the smaller measured IC50: A versus B Could you answer with the label of the item you picked?
B
(B: 0.66 µM, A: 4.8 µM)

P = Cn1c(=O)cc(N(CC2CC2)c2cccc(C(F)(F)F)c2)c2nc(C#N)ccc21
Q = Cn1c(=O)cc(N(CC2CC2)c2ccc(C3CC3)nc2)c2nc(C#N)ccc21
R = Cc1ccc(-c2ccc(N(CC3CC3)c3cc(=O)n(C)c4ccc(C#N)nc34)cc2)cc1
With regard to IC50, arrange the entries in ascending order, please. Reply with the labels, ordered as the question asks.
P, R, Q
(P: 0.2 µM, R: 5.5 µM, Q: 7.9 µM)
